- SYSTEM: T1, Recombinant human PSGL-1(ECD)-hFc1 (R&D Systems, Cat. 3345-PS) (human, UniProt Q14242 42-305)
- T1 construct: Bought; Gln42-Val295 counted on AAC50061; also called PSGL-1-Fc; PSGL-1-hFc1 chimera; not shown: human IgG1 Fc, Pro100-Lys330
- T1 sequence: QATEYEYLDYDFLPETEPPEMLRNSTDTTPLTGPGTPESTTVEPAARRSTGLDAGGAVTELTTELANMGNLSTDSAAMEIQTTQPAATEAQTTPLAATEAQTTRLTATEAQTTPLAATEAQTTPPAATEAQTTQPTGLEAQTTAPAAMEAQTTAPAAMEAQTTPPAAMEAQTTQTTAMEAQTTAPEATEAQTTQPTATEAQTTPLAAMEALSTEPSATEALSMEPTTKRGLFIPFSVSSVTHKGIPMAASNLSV
- ASSAY_DETAILS: Octet tandem; competitor 16E17
Let's look at some binders and their measured % binding of analyte mAb.
MEASURED_ENDPOINT: % binding of analyte mAb

BINDER	DATA_VALUE
15A7 (antibody, V domains shown, Control mAb, recombinant; also called h15A7; 15A17) VH: EVQLVESGGGLVQPGGSLRLSCAASGFTFSSFGMHWVRQAPGKGLEWVAYINGGSSTIFYANAVKGRFTISRDNAKNTLYLQMNSLRAEDTAVYYCARYASYGGGAMDYWGQGTLVTVSS VL: DIQMTQSPSSLSASVGDRVTITCRSSQSIVHNDGNTYFEWYQQKPGKAPKLLIYKVSNRFSGVPSRFSGSGSGTHFTLTISSLQPEDFATYYCFQGSYVPLTFGQGTKVEIK	56.2%
19N05 (antibody, V domains shown, From mouse immunisation; only variable domains given) VH: QIQLVQSGPELKKPGETVKISCKASGYTFTTYGMSWVKQAPGKGLKWMGWINTYSGVPTFADDFKGRFAFSLETSASTAYLQINNLKNEDTATFFCARNYYGNHYFDYWGQGTTLTVSS VL: DVQITQSPSYLAASPGETISINCRASNNINKYLAWYQEKPGKTNKLLIYSGSTLQSGIPSRFSGSGSGTDFTLTISSLEPEDFAMYHCQQHNYYPLTFGAGTKLELK	29.1%
18F17 (antibody, V domains shown, Non-functional anti-PSGL-1 mAb (Verseau); only variable domains given) VH: QVTLKESGPGILQPSQTLSLTCSFSGFSLSTFGMGVGWIRQPSGKGLEWLAHIWWDDDKYYNPALKSRLTISKDTSKNQVFLKIANVDTADTATYYCAIYYDYGVGFDYWGQGTTLTVSS VL: DIVMTQAAPSVPVTPGESVSISCRSSKSLLHSNGYTFLYWFLQRPGQSPQLLIYRMSNLASGVPDRFSGSGSGTAFTLRISRVEAEDVGVYYCMQHLEYPFTFGTGTKLEIK	124%
19L04 (antibody, IgG4, V domains shown, From mouse immunisation; only variable domains given) VH: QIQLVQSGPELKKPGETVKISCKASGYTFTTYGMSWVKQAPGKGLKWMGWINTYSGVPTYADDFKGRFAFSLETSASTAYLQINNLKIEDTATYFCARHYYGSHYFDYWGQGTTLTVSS VL: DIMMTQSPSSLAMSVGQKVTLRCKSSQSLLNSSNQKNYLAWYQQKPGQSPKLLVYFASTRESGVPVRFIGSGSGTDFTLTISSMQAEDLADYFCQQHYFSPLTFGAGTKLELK	61.9%
